- testedOn: hERG potassium channels (KCNH2 gene, expressed in CHO cells) (Homo sapiens)
- Construct: expressed in transfected cells; host or cells: CHO cells
- Sequence (Q12809 whole entry): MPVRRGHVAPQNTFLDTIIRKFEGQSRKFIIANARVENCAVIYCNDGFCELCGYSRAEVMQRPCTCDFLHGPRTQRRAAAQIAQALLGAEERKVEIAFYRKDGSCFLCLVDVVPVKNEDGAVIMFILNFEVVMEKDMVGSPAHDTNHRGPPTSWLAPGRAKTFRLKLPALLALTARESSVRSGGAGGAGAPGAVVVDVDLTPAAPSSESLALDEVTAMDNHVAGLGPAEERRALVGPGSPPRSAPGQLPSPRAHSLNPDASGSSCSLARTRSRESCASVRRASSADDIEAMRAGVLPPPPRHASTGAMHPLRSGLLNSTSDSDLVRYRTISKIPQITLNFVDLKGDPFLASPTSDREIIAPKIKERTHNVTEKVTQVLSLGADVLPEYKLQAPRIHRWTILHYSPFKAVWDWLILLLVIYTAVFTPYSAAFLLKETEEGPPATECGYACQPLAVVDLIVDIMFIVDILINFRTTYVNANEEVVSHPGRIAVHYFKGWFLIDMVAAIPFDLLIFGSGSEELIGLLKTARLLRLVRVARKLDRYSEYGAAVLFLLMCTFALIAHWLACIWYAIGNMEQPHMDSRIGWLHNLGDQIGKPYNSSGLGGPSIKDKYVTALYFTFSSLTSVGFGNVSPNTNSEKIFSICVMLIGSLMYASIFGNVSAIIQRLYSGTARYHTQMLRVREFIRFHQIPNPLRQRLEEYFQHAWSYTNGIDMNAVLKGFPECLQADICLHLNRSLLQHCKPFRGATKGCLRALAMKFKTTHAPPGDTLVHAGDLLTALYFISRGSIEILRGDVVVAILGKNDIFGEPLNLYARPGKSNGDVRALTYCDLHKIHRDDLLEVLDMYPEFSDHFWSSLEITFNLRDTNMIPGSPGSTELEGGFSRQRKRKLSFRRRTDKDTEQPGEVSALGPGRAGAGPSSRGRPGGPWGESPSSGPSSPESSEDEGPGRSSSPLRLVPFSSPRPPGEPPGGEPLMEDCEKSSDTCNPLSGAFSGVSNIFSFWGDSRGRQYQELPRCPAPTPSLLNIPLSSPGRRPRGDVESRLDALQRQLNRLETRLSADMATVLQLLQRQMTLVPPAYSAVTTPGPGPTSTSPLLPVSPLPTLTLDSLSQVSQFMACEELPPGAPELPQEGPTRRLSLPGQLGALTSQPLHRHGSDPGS
- test: Ability to block hERG potassium channel (electrophysiology, IonWorks Quattro)
- Assay type: cell-based
- conditionParameters: cloned hERG in CHO cells; test pulse +40 mV; concentration not given
assayReadout: hERG [%] (% Block) (%)

[[record]]
compound = "COc1cccc(CCNCc2cccc(NS(=O)(=O)c3ccc4ccccc4c3)c2)c1 [Compound 11]"
assayreadout = "hERG [%] (% Block)"
units = "%"
reportedmeasurement = "−4"

[[record]]
compound = "O=S(=O)(Nc1cccc(CNCCOc2cccc3c2OCCO3)c1)c1ccc2ccccc2c1 [Compound 36]"
assayreadout = "hERG [%] (% Block)"
units = "%"
reportedmeasurement = 1

[[record]]
compound = "Cc1cccc(S(=O)(=O)Nc2cccc(CNCCOc3cccc4[nH]ccc34)c2)c1 [Compound 49]"
assayreadout = "hERG [%] (% Block)"
units = "%"
reportedmeasurement = 2

[[record]]
compound = "O=S(=O)(Nc1cccc(CNCCOc2cccc3c2OCCO3)c1)c1csc2ccccc12 [Compound 43]"
assayreadout = "hERG [%] (% Block)"
units = "%"
reportedmeasurement = 10

[[record]]
compound = "O=S(=O)(Nc1cccc(CNCCOc2cccc3[nH]ccc23)c1)c1ccc2ccccc2c1 [Compound 52]"
assayreadout = "hERG [%] (% Block)"
units = "%"
reportedmeasurement = 2

[[record]]
compound = "O=S(=O)(Nc1cccc(CNCCOc2cccc3c2OCCO3)c1)c1cccc2ccccc12 [Compound 35]"
assayreadout = "hERG [%] (% Block)"
units = "%"
reportedmeasurement = "−1"

[[record]]
compound = "CN(CCCc1noc2cc(F)ccc12)Cc1cccc(NS(=O)(=O)c2ccccc2)c1 [Compound 60]"
assayreadout = "hERG [%] (% Block)"
units = "%"
reportedmeasurement = 6

[[record]]
compound = "O=S(=O)(Nc1cccc(CNCCOc2cccc3[nH]ccc23)c1)c1cccc2ccccc12 [Compound 51]"
assayreadout = "hERG [%] (% Block)"
units = "%"
reportedmeasurement = 1


Origin of measurements: patent US20150051257A1
